# TGI per entry
# Tested on: DU-145 prostate
# method_notes: NCI tumour cell line growth inhibition, 48 h

As a guide, the following entries are already answered.
>>> result("Oc1ccccc1C1=NOC(c2ccc(C(F)(F)F)cc2)C1 (stereo unspecified)")
"> 50 µM"
>>> result("O=c1c2cc(Cl)ccc2[nH]c2cc(O)cc(O)c12")
"> 10 µM"
>>> result("COc1ccc(/C=C/C(=O)CC(=O)/C=C/c2ccc(OC)cc2)cc1")
"> 100 µM"
>>> result("CN1C=Cc2nccc3cc4c(c1c23)OCO4")
"> 25.1 µM"
>>> result("CCC(=O)Nc1ccccc1C#C/C=C\\C#Cc1ccccc1C(F)(F)F")
"22.3 µM"

Entry C[n+]1c(-c2ccc(/C=N/NC(=O)c3ccc(C(=O)N/N=C/c4ccc(-c5cn6ccccc6[n+]5C)cc4)cc3)cc2)cn2ccccc21 — recorded TGI = 698 µM

* * *

# Tested on: SW-620 colon
# method_notes: NCI tumour cell line growth inhibition, 48 h
readout_kind: GI50

// below: answered compounds
>>> result("CCc1cc2ncc(CN3CCN(c4ccc(C(=O)NC)nc4)CC3)cc2[nH]c1=O")
"> 100 µM"
>>> result("CCCNC(=O)c1ccc(Cl)cc1Cl")
"> 100 µM"
>>> result("CC(=O)[CH-]C(=O)c1ccccc1.CC(=O)[CH-]C(=O)c1ccccc1.Cl.[O-]c1ccccn1.[O-]c1ccccn1.[Ti+4]")
"> 100 µM"

Pending compound:
response.value for Cc1ccc(C2=C(c3ccccc3)C(c3ccccc3)Oc3ccc(C)cc32)cc1 (centres undefined) (field: GI50) = 3.79 µM

* * *

# Test system: HL-60(TB) leukemia
# method_notes: NCI tumour cell line growth inhibition, 48 h
Reported TGI is given for each of the following molecules.

Past entries and their recorded results:
>>> result("c1cncc(C2Nc3cccc4cccc(c34)N2)c1")
"> 100 µM"
>>> result("NCCCCC(=O)c1cccnc1")
"> 100 µM"
>>> result("C/C(=N\\NC(=S)N1CC2CCC(CC2)C1)c1cccc(C)n1")
"4.45 µM"
>>> result("CCCCN(CCCC)CCC(O)c1cc2c(Cl)cc(Cl)cc2c2cc(C(F)(F)F)ccc12 (stereo not drawn)")
"21.8 µM"

Value of TGI reported for the molecule N#Cc1c(O)cc(=O)n2c1[nH]c1ccccc12 is > 100 µM

// recorded TGI for CC1(C)C=N[N+]2(C)C3C=CC(CC3)C12 (stereo not drawn) : > 100 µM

According to the records, this molecule O=C(CC(=O)N1N=C(N(c2ccccc2)c2ccccc2)CC1c1ccccc1)Nc1ccc(Cl)cc1 (stereo not drawn) displays TGI of > 100 µM

Field TGI (entry CCOC(=O)c1nc2ccccc2nc1Oc1cc(OC)c(OC)c(OC)c1 ) reads > 100 µM

* * *

The molecules listed here are annotated with their TGI.
# System: DLD-1 colon
# method_notes: NCI tumour cell line growth inhibition, 48 h
Field format: number, assumed µM, no unit text.

>>> numeric_value("COc1cccc2c1C(=O)c1c(O)c3c(c(O)c1C2=O)C[C@@](O)(C(=O)CO)CC3OC1CC(O)C(O)C(C)O1 (stereo not given in full)")
10.8
>>> numeric_value("C/C(=N\\N=C(\\[Se])N(C)C)c1ccccn1")
16.9

Query molecule follows.
Consider O=S1(=O)CS(=O)(=O)OCCO1 . Its measured TGI is 164
